Source: ChEMBL document CHEMBL4219063

Some compounds, each annotated with its measured metabolised at 8 h, 100 µM.
Target: MMP14 (Homo sapiens)
Assay: Substrate activity at MMP14 (unknown origin) assessed as enzyme-mediated substrate hydrolysis at 100 umol/L after 8 hrs by UV-HPLC method relative to control
Assay type: ADME
Settings: read-out: Drug metabolism
Square brackets hold non-standard residues; d marks the D form. Peptide text beside a SMILES is read from it. * marks the point of attachment. ξ: configuration not given here. X1 = CCN(CC)c1ccc2nc3ccc(/N=N/c4ccc(N(C)CCCC(=O)*)cc4)cc3[n+](-c3ccccc3)c2c1; ξThr(3R) = C[C@@H](O)C(N)C(=O)O; AEEA = NCCOCCOCC(=O)O
resultType: metabolised at 8 h, 100 µM (%)

[
  {
    "compound": "CC[C@H](C)[C@H](NC(=O)[C@H](CCCNC(=N)N)NC(=O)CN)C(=O)NCC(=O)N[C@@H](Cc1ccccc1)C(=O)N[C@@H](CC(C)C)C(=O)N[C@@H](CCCNC(=N)N)C(=O)N[C@H](C(=O)N[C@@H](C)C(=O)N[C@@H](CCCCNC(=O)CCCCCOc1c(/N=N/c2cc(OC)c(/N=N/c3ccc([N+](=O)[O-])cc3)cc2OC)cc2c3c1CCCN3CCC2)C(=O)NCC(=O)NCC(=O)O)[C@@H](C)O",
    "quantitativeReadout": 31
  },
  {
    "compound": "CC[C@H](C)[C@H](NC(=O)[C@H](CCCNC(=N)N)NC(=O)CN)C(=O)NCC(=O)N[C@@H](Cc1ccccc1)C(=O)N[C@@H](CC(C)C)C(=O)N[C@@H](CCCNC(=N)N)C(=O)NC(C(=O)N[C@@H](C)C(=O)N[C@@H](CCCCNC(=O)CCCN(C)c1ccc(/N=N/c2ccc3nc4ccc(N(CC)CC)cc4[n+](-c4ccccc4)c3c2)cc1)C(=O)NCC(=O)NCC(=O)O)[C@@H](C)O (stereo partly drawn) (H-GRIGFLR[ξThr(3R)]AK(X1)GG-OH)",
    "quantitativeReadout": 86
  },
  {
    "compound": "CC[C@H](C)[C@H](NC(=O)[C@H](CCCNC(=N)N)NC(=O)CNC(=O)COCCOCCN)C(=O)NCC(=O)N[C@@H](Cc1ccccc1)C(=O)N[C@@H](CC(C)C)C(=O)N[C@@H](CCCNC(=N)N)C(=O)N[C@H](C(=O)N[C@@H](C)C(=O)N[C@@H](CCCCN)C(=O)NCC(=O)NCC(=O)O)[C@@H](C)O (H-[AEEA]GRIGFLRTAKGG-OH)",
    "quantitativeReadout": 100
  }
]

---

Molecular target: MMP2 (Homo sapiens, UniProt P08253)
Sequence (P08253 whole entry): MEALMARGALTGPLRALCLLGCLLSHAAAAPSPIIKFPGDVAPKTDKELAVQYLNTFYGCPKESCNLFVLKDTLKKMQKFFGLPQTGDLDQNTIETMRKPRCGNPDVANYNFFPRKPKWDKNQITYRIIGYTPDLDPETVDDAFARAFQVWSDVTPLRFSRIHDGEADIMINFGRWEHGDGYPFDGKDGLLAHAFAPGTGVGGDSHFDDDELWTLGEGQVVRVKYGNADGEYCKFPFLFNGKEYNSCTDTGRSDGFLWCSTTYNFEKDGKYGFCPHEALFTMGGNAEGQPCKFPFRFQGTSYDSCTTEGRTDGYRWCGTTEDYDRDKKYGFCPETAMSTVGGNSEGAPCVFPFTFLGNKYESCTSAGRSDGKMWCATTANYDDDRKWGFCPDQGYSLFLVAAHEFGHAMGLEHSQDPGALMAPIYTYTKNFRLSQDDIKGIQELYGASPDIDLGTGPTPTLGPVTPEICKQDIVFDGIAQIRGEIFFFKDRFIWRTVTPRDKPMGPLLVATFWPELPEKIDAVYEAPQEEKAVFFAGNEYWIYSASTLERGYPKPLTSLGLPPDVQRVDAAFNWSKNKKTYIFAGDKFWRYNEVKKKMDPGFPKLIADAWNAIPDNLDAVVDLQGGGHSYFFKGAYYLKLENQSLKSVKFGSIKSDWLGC
Assay: Substrate activity at MMP2 (unknown origin) assessed as enzyme-mediated substrate hydrolysis at 100 umol/L after 8 hrs by UV-HPLC method relative to control
Type: ADME
Details: read-out: Drug metabolism

[
  {
    "substance": "H-GRIGFLRTAKGG-OH",
    "readoutUnits": "%",
    "metabolised at 8 h, 100 µM": 26
  }
]
